The measurements presented in this section are drawn from paper PMC6445164.

target: hCA VII (Homo sapiens); test: stopped-flow CA catalysed CO2 hydration assay, hCA VII
Sequence (P43166 whole entry): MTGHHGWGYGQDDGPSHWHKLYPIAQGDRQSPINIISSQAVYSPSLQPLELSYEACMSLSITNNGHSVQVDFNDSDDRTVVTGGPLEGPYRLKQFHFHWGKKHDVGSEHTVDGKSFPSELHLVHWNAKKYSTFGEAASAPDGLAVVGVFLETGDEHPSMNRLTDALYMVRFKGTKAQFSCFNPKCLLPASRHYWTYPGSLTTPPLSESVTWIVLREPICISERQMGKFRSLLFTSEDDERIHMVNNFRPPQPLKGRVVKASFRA
pKi: −log10 of the molar value.
assay.readout: pKi

{"smiles.code": "COc1cc(-n2nc(C)c(S(N)(=O)=O)c2C)ccc1S(N)(=O)=O", "assay.readout": "pKi", "endpoint.result": 6.77}
{"smiles.code": "Cc1nn(-c2cccc(S(N)(=O)=O)c2)c(C)c1S(N)(=O)=O", "assay.readout": "pKi", "endpoint.result": 6.59}
{"smiles.code": "COc1cc(-n2cccn2)ccc1S(N)(=O)=O", "assay.readout": "pKi", "endpoint.result": 6.41}
{"smiles.code": "Cc1cc(C)n(-c2ccc(S(N)(=O)=O)c(C)c2)n1", "assay.readout": "pKi", "endpoint.result": 7.40}
{"smiles.code": "Cc1nn(-c2ccccc2)c(C)c1S(N)(=O)=O", "assay.readout": "pKi", "endpoint.result": 6.28}

(P) Cc1nn(-c2ccc(S(N)(=O)=O)cc2)c(C)c1S(N)(=O)=O
(Q) Cc1cc(C)n(-c2ccc(S(N)(=O)=O)cc2)n1
input: Pick the one with the larger pKi: P vs Q // respond with label for picked entry
output: Q
(Q: 7.77, P: 7.46)

(a) NS(=O)(=O)c1cnn(-c2ccc(S(N)(=O)=O)c(Cl)c2)c1
(b) NS(=O)(=O)c1ccc(-n2cc(S(N)(=O)=O)cn2)cc1
input: // pick min by pKi: a , b // respond with label for picked entry
output: a
(a: 6.32, b: 7.39)

* * *

target: hCA I (Homo sapiens, UniProt P00915); assay: stopped-flow CA catalysed CO2 hydration assay, hCA I
Sequence (P00915 whole entry): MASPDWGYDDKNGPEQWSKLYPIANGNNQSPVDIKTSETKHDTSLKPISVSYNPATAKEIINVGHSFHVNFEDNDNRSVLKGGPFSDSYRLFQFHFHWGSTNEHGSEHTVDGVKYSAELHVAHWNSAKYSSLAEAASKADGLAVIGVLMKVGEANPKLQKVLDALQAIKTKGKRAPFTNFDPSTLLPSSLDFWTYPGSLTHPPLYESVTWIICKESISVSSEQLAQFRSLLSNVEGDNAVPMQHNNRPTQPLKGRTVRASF
assay.readout: Ki (nM)

Worked examples follow.
{"compound": "Cc1ccc(-n2nc(C)c(S(N)(=O)=O)c2C)cc1", "endpoint.result": 760}
{"compound": "Cc1nn(-c2cccc(S(N)(=O)=O)c2)c(C)c1S(N)(=O)=O", "endpoint.result": 500}
{"compound": "Cc1nn(-c2ccc(Cl)cc2)c(C)c1S(N)(=O)=O", "endpoint.result": 760}
{"compound": "NS(=O)(=O)c1ccc(-n2cc(S(N)(=O)=O)cn2)cc1", "endpoint.result": 200}
{"compound": "NS(=O)(=O)c1ccc(-n2cccn2)cc1 [Compound 7a, 4-(^1H-pyrazol-1-yl)benzenesulfonamide]", "endpoint.result": 4780}
{"compound": "Cc1ccc(-n2cc(S(N)(=O)=O)cn2)cc1S(N)(=O)=O", "endpoint.result": 300}

(I) NS(=O)(=O)c1cnn(-c2ccc(Cl)c(S(N)(=O)=O)c2)c1
(II) Cc1cc(-n2cccn2)ccc1S(N)(=O)=O
input: // pick min by Ki: I , II // respond with label for picked entry
output: II
(II: 96 nM, I: 620 nM)

(P) NS(=O)(=O)c1ccc(Cl)c(-n2cc(S(N)(=O)=O)cn2)c1
(Q) Cc1ccc(S(N)(=O)=O)cc1-n1nc(C)c(S(N)(=O)=O)c1C
input: Pick the one with the larger Ki: P vs Q // respond with label for picked entry
output: Q
(Q: 870 nM, P: 550 nM)

(P) NS(=O)(=O)c1ccc(-n2cccn2)cc1Cl
(Q) Cc1nn(-c2cc(S(N)(=O)=O)ccc2Cl)c(C)c1S(N)(=O)=O
input: Pick the one with the larger Ki: P vs Q // respond with label for picked entry
output: Q
(Q: 2120 nM, P: 66 nM)
